Molecular target: CDK4/CyclinD1 (Homo sapiens)
Construct: purchased Thermofisher PR8064A
Assay: Assay for inhibition of CDK4/CyclinD1 (Caliper microfluidic kinase assay)
Format: biochemical
Settings: CDK4/CyclinD1, 200 μM ATP
Parameter measured: IC50

The following molecules have reported results that may help.
C=C(C)c1cnn2ccc(-c3nc(Nc4ccc(CN5CCN(CC)CC5)cn4)ncc3F)cc12 :: 10 to 100 nM
CC(C)c1cnn2ccc(-c3nc(Nc4ccc(N5CCN(CCF)CCC5=O)cn4)ncc3F)cc12 :: < 10 nM

Note: attention shifts to another entry.
Consider the molecule shown here: CC(C)c1cnn2ccc(-c3nc(Nc4ccc(N5C(=O)CC6CC5CN6)cn4)ncc3F)cc12 (stereo not drawn) What is its recorded IC50?
< 10 nM

* * *

Target: CDK4/CyclinD1 (Homo sapiens, UniProt P11802)
Construct: purchased Thermofisher PR8064A
Sequence (P11802 whole entry): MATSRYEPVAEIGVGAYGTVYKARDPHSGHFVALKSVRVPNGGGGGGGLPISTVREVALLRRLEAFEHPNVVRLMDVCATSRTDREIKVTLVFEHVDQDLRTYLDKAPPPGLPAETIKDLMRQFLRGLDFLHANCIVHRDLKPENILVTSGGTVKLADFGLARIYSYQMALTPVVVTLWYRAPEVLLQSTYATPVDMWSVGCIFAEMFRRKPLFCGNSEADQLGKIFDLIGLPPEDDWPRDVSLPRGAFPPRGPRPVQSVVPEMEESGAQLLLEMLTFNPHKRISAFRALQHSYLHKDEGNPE
Sequence (P24385 whole entry partner): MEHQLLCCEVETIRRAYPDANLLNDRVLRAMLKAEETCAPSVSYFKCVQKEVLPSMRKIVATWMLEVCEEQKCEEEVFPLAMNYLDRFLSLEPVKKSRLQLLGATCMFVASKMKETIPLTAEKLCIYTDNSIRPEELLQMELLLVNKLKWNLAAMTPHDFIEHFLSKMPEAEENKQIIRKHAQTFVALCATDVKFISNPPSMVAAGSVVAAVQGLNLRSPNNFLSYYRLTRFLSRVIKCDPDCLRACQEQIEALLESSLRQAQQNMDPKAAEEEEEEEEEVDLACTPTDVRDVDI
Assay: Assay for inhibition of CDK4/CyclinD1 (Caliper microfluidic kinase assay)
Format: biochemical
Conditions: CDK4/CyclinD1, 200 μM ATP
pIC50: −log10 of the molar value.
Parameter measured: pIC50

Worked cases, pIC50 given:
CC(C)c1cnn2ccc(-c3ccnc(Nc4ccc(C(=O)N5CCC(O)CC5)cc4)n3)cc12 :: 7.00 to 8.00
CC(C)c1cnn2ccc(-c3ccnc(Nc4ccc(N5C(=O)C6CC5CN6)cn4)n3)cc12 (stereo not drawn) :: > 8.00
COc1cc(N2CCCC(N)C2=O)ccc1Nc1nccc(-c2ccn3ncc(C(C)C)c3c2)n1 (stereo not drawn) :: 7.00 to 8.00
Cc1nc2c(F)nc(-c3ccnc(Nc4ccc(N5CCCC(N(C)C)C5=O)cn4)n3)cc2n1C(C)C (single isomer, unassigned) [Synthetic Example 302] :: > 8.00
CCN1CCN(c2ccc(Nc3ncc(F)c(-c4cc5c(nc(C)n5C(C)C)c(OC)n4)n3)nc2)C(=O)C1 [Synthetic Example 128] :: > 8.00
COc1nc(-c2nc(Nc3ccc(N4CCN(C5COC5)CC4)cn3)ncc2F)cc2c1ncn2C(C)C :: 7.00 to 8.00

State its pIC50 on CDK4/CyclinD1 (Homo sapiens, UniProt P11802): `CC(C)c1cnn2ccc(-c3ccnc(Nc4ccc5c(c4)CS(=O)(=O)C5)n3)cc12`
> 8.00

Now give it for CNC1CCN(C(=O)c2ccc(Nc3nccc(-c4ccn5ncc(C(C)C)c5c4)n3)cc2)C1 (stereo not drawn) too.
> 8.00

Entry to check: CC(C)(C)c1cnn2ccc(-c3ccnc(Nc4ccc(N5C(=O)C6CC5CN6)cn4)n3)cc12 (stereo not drawn)
> 8.00
